Entry source: PubChem BioAssay (NCI)

Test system: MOLT-4 leukemia
PROTOCOL SUMMARY: NCI tumour cell line growth inhibition, 48 h; in the data active = GI50 below about 0.43 µM; inactive = the rest
In this exercise, the only acceptable responses are active, inactive

[
  {
    "COMPOUND": "O=C([CH-]C(=O)c1ccccc1)c1ccccc1.O=C([CH-]C(=O)c1ccccc1)c1ccccc1.O=C([CH-]C(=O)c1ccccc1)c1ccccc1.[Ga+3]",
    "TARGET": "MOLT-4 leukemia",
    "CLASS NAME": "inactive"
  },
  {
    "COMPOUND": "ClC1=C(Cl)C(Cl)(C2(Cl)C(Cl)=C(Cl)C(Cl)=C2Cl)C(Cl)=C1Cl",
    "TARGET": "MOLT-4 leukemia",
    "CLASS NAME": "active"
  },
  {
    "COMPOUND": "CCN1CCN(CCC(=O)Nc2cccc(-n3cc(-c4ccncc4)c(-c4ccc(Cl)c(OC)c4)n3)c2)CC1",
    "TARGET": "MOLT-4 leukemia",
    "CLASS NAME": "inactive"
  },
  {
    "COMPOUND": "CN(C)CCNC(=O)c1cc2c3cc(Cl)ccc3[nH]c2c2ncccc12",
    "TARGET": "MOLT-4 leukemia",
    "CLASS NAME": "inactive"
  },
  {
    "COMPOUND": "CN(C)CCC(N)(P(=O)([O-])[O-])P(=O)([O-])[O-].N.N.[Pt+2]",
    "TARGET": "MOLT-4 leukemia",
    "CLASS NAME": "inactive"
  },
  {
    "COMPOUND": "C[C@@H]1CN2[C@H]3[C@@H]1CC[C@]31CCC(=O)O[C@]1(C)[C@H]1CC[C@H]3CCC=C3[C@@H]12",
    "TARGET": "MOLT-4 leukemia",
    "CLASS NAME": "inactive"
  }
]

Task item: Tell me the recorded outcome of this test for C=CCC1(O)c2ccccc2C(=O)c2c(OCC(=O)OCC)ccc(OCC(=O)OCC)c21 (stereo not drawn) .
Reply: inactive

Task item: Tell me the recorded outcome of this test for `O=C1NC(=O)C(c2c[nH]c3ccccc23)=C1c1c[nH]c2ccccc12` .
Reply: inactive

---

The molecules listed here are annotated with their TGI.
Test system: DU-145 prostate
PROTOCOL SUMMARY: NCI tumour cell line growth inhibition, 48 h
Give a bare numeral; the unit µM is implied.

Task item: What does the data say about its TGI? Entry: `COC(=O)c1c2c(c(C)[n+]([O-])c1C)C(=O)C(NCc1ccc(OC)cc1)=CC2=O`
Reply: 10.2

---

The compounds listed here are annotated with their TGI.
Test system: HCT-15 colon
PROTOCOL SUMMARY: NCI tumour cell line growth inhibition, 48 h

Use these answered entries as a reference point.
[
  {
    "COMPOUND": "CCCCCCCCCCCCCCCCOCC(COP(=O)(O)OCC1OC(n2cc(CC)c(=O)[nH]c2=O)CC1O)OC(=O)CCCCCCCCCCCCCCC (stereo not given)",
    "TGI": "> 100 µM"
  },
  {
    "COMPOUND": "Cc1ccc(N)c(S)c1",
    "TGI": "30.4 µM"
  },
  {
    "COMPOUND": "COc1ccc(C2=NN(C(N)=S)C(c3ccc4c(c3)OCO4)C2)cc1 (stereo not given)",
    "TGI": "> 100 µM"
  },
  {
    "COMPOUND": "C/C=C1/CC(C(=O)OC)N(C(=O)OCc2ccccc2)C1=S (stereo not given)",
    "TGI": "> 100 µM"
  },
  {
    "COMPOUND": "COc1ccc2c(c1)/C(=C/c1c(O)[nH]c(=S)[nH]c1=O)C=N2",
    "TGI": "> 100 µM"
  }
]

Task item: Under HCT-15 colon: TGI value of CC(C)(C)N(Cc1ccccc1)C(=O)/C=C\S(=O)c1ccccc1 (stereo not given) ?
Reply: 18 µM

Task item: Under HCT-15 colon: TGI value of `COc1ccc2c(c1)[C@@H](NC(C)=O)CCc1cc(OC)c(OC)c(OC)c1-2` ?
Reply: > 30.9 µM

Task item: Under HCT-15 colon: TGI value of `NS(=O)(=O)c1ccc(NC(=S)NC(=O)Nc2ccc(Cl)c(Cl)c2)cc1` ?
Reply: 29.8 µM

Task item: Under HCT-15 colon: TGI value of `CC1(C)N=C(N)N=C(N)N1c1ccc(OCCCNC(=O)Nc2ccc(S(=O)(=O)F)cc2)c(Cl)c1` ?
Reply: > 100 µM

Task item: Under HCT-15 colon: TGI value of `CN1CCN(c2cc3[nH]c4cc(O)cc(O)c4c(=O)c3cc2N)CC1` ?
Reply: > 100 µM

---

Tested on: HCT-15 colon
PROTOCOL SUMMARY: NCI tumour cell line growth inhibition, 48 h; in the data active means GI50 below about 0.43 µM; inactive means the rest
In this exercise, the only acceptable responses are active, inactive

Reference set (5 entries):
[
  {
    "COMPOUND": "COc1cc(/C=C2\\CC3C4CC=C5CC(OC(C)=O)CC[C@]5(C)C4CC[C@]3(C)C2=O)ccc1OCCN1CCCC1 (stereo partly specified)",
    "CLASS NAME": "inactive"
  },
  {
    "COMPOUND": "CC(C)=CCC/C(C)=C/CC/C(C)=C/CSC[C@H](NC(=O)CCCCCN1CCN(C)CC1)C(=O)NC1CCCCCC1",
    "CLASS NAME": "inactive"
  },
  {
    "COMPOUND": "CCC(=C(c1ccc(OCCN2CCCCC2)cc1)c1ccc(OCCN2CCCCC2)cc1)c1ccc(Cl)cc1",
    "CLASS NAME": "inactive"
  },
  {
    "COMPOUND": "ClC1=C(Cl)C(Cl)(C2(Cl)C(Cl)=C(Cl)C(Cl)=C2Cl)C(Cl)=C1Cl",
    "CLASS NAME": "active"
  },
  {
    "COMPOUND": "C=CCc1cccc(C=O)c1O",
    "CLASS NAME": "inactive"
  }
]

Here is the next item to consider.
Task item: Tell me the recorded outcome of this test for CC(C)=CCc1cc2c(cc1O)C1=C(C(=O)C3=C(NCCS3(=O)=O)C1=O)C(C=C(C)C)O2 (stereo unspecified) .
Reply: inactive

---

System: DU-145 prostate
PROTOCOL SUMMARY: NCI tumour cell line growth inhibition, 48 h; in the data active means GI50 below about 0.43 µM; inactive means the rest
In this exercise, the only acceptable responses are active, inactive

Task item: Tell me the recorded outcome of this test for `Cc1c(Cl)cccc1C(=O)Nc1nc2c(s1)CN(C(=O)Nc1cccc(C(F)(F)F)c1)CC2` .
Reply: active

Task item: Tell me the recorded outcome of this test for `O=C(CCCc1ccc(N(CCCl)CCCl)cc1)NCc1ccccc1` .
Reply: inactive

Task item: Tell me the recorded outcome of this test for COc1ccc(C2=NN(C(N)=S)C(c3ccc4c(c3)OCO4)C2)cc1 (centres undefined) .
Reply: inactive

Task item: Tell me the recorded outcome of this test for `O=S(=O)(NCCCNc1cc(-c2cn(-c3ccccc3)nc2-c2cccc(O)c2)ccn1)c1ccc(C(F)(F)F)cc1` .
Reply: inactive

Task item: Tell me the recorded outcome of this test for `C[C@@H]1CN2[C@H]3[C@@H]1CC[C@]31CCC(=O)O[C@]1(C)[C@H]1CC[C@H]3CCC=C3[C@@H]12` .
Reply: inactive

Task item: Tell me the recorded outcome of this test for `COc1cc2c(c3oc(-c4ccc(O)cc4)c(O)c(=O)c13)CCC(C)(C)O2` .
Reply: active

Task item: Tell me the recorded outcome of this test for `O=C(NCc1cn(Cc2cccc(Oc3ccccc3)c2)nn1)c1cccnc1Nc1ccc(F)cc1` .
Reply: inactive

Task item: Tell me the recorded outcome of this test for `CCC(=C(c1ccc(OCCN2CCCCC2)cc1)c1ccc(OCCN2CCCCC2)cc1)c1ccc(Cl)cc1` .
Reply: inactive

Task item: Tell me the recorded outcome of this test for `CC(C)=CCC/C(C)=C/CC/C(C)=C/CSC[C@H](NC(=O)CCCCCN1CCN(C)CC1)C(=O)NC1CCCCCC1` .
Reply: inactive

---

Test system: SK-MEL-2 melanoma
PROTOCOL SUMMARY: NCI tumour cell line growth inhibition, 48 h; in the data active means GI50 below about 0.43 µM; inactive means the rest
In this exercise, the only acceptable responses are label 1 (active), label 0 (inactive)

Reference set (6 entries):
[
  {
    "COMPOUND": "CC(C)=CC[C@@H]1CC2(CC=C(C)C)C(=O)C(OC3(C(=O)c4ccccc4)C(=O)C4(CC=C(C)C)C[C@@H](CC=C(C)C)C(C)(C)C(CC=C(C)C)(C4=O)C3=O)(C(=O)c3ccccc3)C(=O)C(CC=C(C)C)(C2=O)C1(C)C (stereo not given in full)",
    "CLASS NAME": "label 0"
  },
  {
    "COMPOUND": "O=C(N/N=C/c1ccc(Cl)cc1)c1ccc(NC(=O)c2ccccn2)cc1",
    "CLASS NAME": "label 0"
  },
  {
    "COMPOUND": "CC(C)=CCC/C(C)=C/CC/C(C)=C/CSC[C@H](NC(=O)CCCCCN1CCN(C)CC1)C(=O)NC1CCCCCC1",
    "CLASS NAME": "label 0"
  },
  {
    "COMPOUND": "Nc1ccc(/C=C/c2ccc3ncccc3c2)cc1",
    "CLASS NAME": "label 0"
  },
  {
    "COMPOUND": "Sc1cccc2cccnc12",
    "CLASS NAME": "label 0"
  },
  {
    "COMPOUND": "COc1ccc(C2=NN(C(N)=S)C(c3ccc4c(c3)OCO4)C2)cc1 (stereo not given)",
    "CLASS NAME": "label 0"
  }
]

Here is the next item to consider.
Task item: Tell me the recorded outcome of this test for `COC(=O)c1c2c(c(C)[n+]([O-])c1C)C(=O)C(NCc1ccc(OC)cc1)=CC2=O` .
Reply: label 0
